The measured values listed here are drawn from BigSolDB 2.1.

settings: in isobutanol, 303.15 K
measure: solubility (mole fraction)
Reply briefly: the number, and no unit.

Query: Please indicate solubility (mole fraction) recorded for `OC[C@H]1O[C@@H](Oc2ccc(O)cc2)[C@H](O)[C@@H](O)[C@@H]1O`
Result: 0.000454

###

conditions: in isobutanol, 283.15 K
measure: solubility (mole fraction)

Query: Entry `OC[C@H]1O[C@@H](Oc2ccc(O)cc2)[C@H](O)[C@@H](O)[C@@H]1O` needs its solubility (mole fraction) filled in; supply it.
Result: 0.000225

###

conditions: in isopropanol, 283.15 K
measure: solubility (mole fraction)

Query: Indicate its recorded solubility (mole fraction); the compound in question is `OC[C@H]1O[C@@H](Oc2ccc(O)cc2)[C@H](O)[C@@H](O)[C@@H]1O`
Result: 0.000727

###

details: in n-butanol, 288.15 K
measure: solubility (mole fraction)
Simply state the number, no unit and no words.

Query: For `OC[C@H]1O[C@@H](Oc2ccc(O)cc2)[C@H](O)[C@@H](O)[C@@H]1O` , write its solubility (mole fraction).
Result: 0.000499

###

details: in methyl acetate, 298.15 K
measure: solubility (mole fraction)
Answer with a bare number; do not write a unit.

Query: Find the measured solubility (mole fraction) of `OC[C@H]1O[C@@H](Oc2ccc(O)cc2)[C@H](O)[C@@H](O)[C@@H]1O` and report it.
Result: 0.000154

###

details: in acetonitrile, 293.15 K
measure: solubility (mole fraction)
Answer with a bare number; do not write a unit.

Query: Read off the recorded solubility (mole fraction) for `OC[C@H]1O[C@@H](Oc2ccc(O)cc2)[C@H](O)[C@@H](O)[C@@H]1O`
Result: 0.000124

###

settings: in acetone, 298.15 K
measure: solubility (mole fraction)
Respond with the number and no other words.

Query: Provide solubility (mole fraction) value for the following compound: `OC[C@H]1O[C@@H](Oc2ccc(O)cc2)[C@H](O)[C@@H](O)[C@@H]1O`
Result: 0.000799

###

details: in isopropanol, 288.15 K
measure: solubility (mole fraction)
Form rule: numeric answer, no unit written next to it.

Query: Return reported solubility (mole fraction). Input molecule: `OC[C@H]1O[C@@H](Oc2ccc(O)cc2)[C@H](O)[C@@H](O)[C@@H]1O`
Result: 0.000858

###

details: in ethyl acetate, 313.15 K
measure: solubility (mole fraction)
Response field accepts a number only; no unit should be typed.

Query: Consider the compound `OC[C@H]1O[C@@H](Oc2ccc(O)cc2)[C@H](O)[C@@H](O)[C@@H]1O` and give its recorded solubility (mole fraction).
Result: 0.000112

###

details: in n-propanol, 283.15 K
measure: solubility (mole fraction)
Format: numeric value only, no unit, no commentary.

Query: For the compound `OC[C@H]1O[C@@H](Oc2ccc(O)cc2)[C@H](O)[C@@H](O)[C@@H]1O` , give its reported solubility (mole fraction).
Result: 0.000764

###

details: in isobutanol, 323.15 K
measure: solubility (mole fraction)
Reply with the value as a number alone.

Query: Fill in reported solubility (mole fraction) for this entry: `OC[C@H]1O[C@@H](Oc2ccc(O)cc2)[C@H](O)[C@@H](O)[C@@H]1O`
Result: 0.00104

###

conditions: in methyl acetate, 303.15 K
measure: solubility (mole fraction)

Query: Please list solubility (mole fraction) recorded for the compound `OC[C@H]1O[C@@H](Oc2ccc(O)cc2)[C@H](O)[C@@H](O)[C@@H]1O`
Result: 0.000185

###

details: in ethylene glycol, 318.15 K
measure: solubility (mole fraction)
API note: the answer field is a bare number with no unit suffix.

Query: Report solubility (mole fraction), nothing else, for this compound: `OC[C@H]1O[C@@H](Oc2ccc(O)cc2)[C@H](O)[C@@H](O)[C@@H]1O`
Result: 0.0631

###

conditions: in isopropanol, 313.15 K
measure: solubility (mole fraction)
// return just the number, without any unit appended

Query: Fill in solubility (mole fraction) for record `OC[C@H]1O[C@@H](Oc2ccc(O)cc2)[C@H](O)[C@@H](O)[C@@H]1O`
Result: 0.00191

###

conditions: in ethyl acetate, 288.15 K
measure: solubility (mole fraction)

Query: Give a short answer stating reported solubility (mole fraction) for `OC[C@H]1O[C@@H](Oc2ccc(O)cc2)[C@H](O)[C@@H](O)[C@@H]1O` .
Result: 8.14e-05

###

conditions: in n-propanol, 293.15 K
measure: solubility (mole fraction)
Response field accepts a number only; no unit should be typed.

Query: // Input: `OC[C@H]1O[C@@H](Oc2ccc(O)cc2)[C@H](O)[C@@H](O)[C@@H]1O` . Output its solubility (mole fraction) only.
Result: 0.00103

###

conditions: in methanol, 288.15 K
measure: solubility (mole fraction)
Enter the number alone.

Query: Identify measured solubility (mole fraction) associated with `OC[C@H]1O[C@@H](Oc2ccc(O)cc2)[C@H](O)[C@@H](O)[C@@H]1O`
Result: 0.0117

###

details: in 2-butanone, 303.15 K
measure: solubility (mole fraction)
Respond with the number and no other words.

Query: State its solubility (mole fraction) for this molecule: `OC[C@H]1O[C@@H](Oc2ccc(O)cc2)[C@H](O)[C@@H](O)[C@@H]1O`
Result: 0.000297

###

details: in acetone, 323.15 K
measure: solubility (mole fraction)
Enter the number alone.

Query: Supply recorded solubility (mole fraction) for `OC[C@H]1O[C@@H](Oc2ccc(O)cc2)[C@H](O)[C@@H](O)[C@@H]1O` here.
Result: 0.00143

###

details: in ethyl acetate, 283.15 K
measure: solubility (mole fraction)
No unit in the answer, only the number.

Query: For the molecule `OC[C@H]1O[C@@H](Oc2ccc(O)cc2)[C@H](O)[C@@H](O)[C@@H]1O` , give its measured solubility (mole fraction) value.
Result: 8.03e-05

###

conditions: in methyl acetate, 288.15 K
measure: solubility (mole fraction)
When you answer, write just the number.

Query: Supply recorded solubility (mole fraction) for `OC[C@H]1O[C@@H](Oc2ccc(O)cc2)[C@H](O)[C@@H](O)[C@@H]1O` here.
Result: 0.000129

###

settings: in ethylene glycol, 313.15 K
measure: solubility (mole fraction)
Output: the number by itself.

Query: Give the reported value of solubility (mole fraction) for this record: `OC[C@H]1O[C@@H](Oc2ccc(O)cc2)[C@H](O)[C@@H](O)[C@@H]1O`
Result: 0.0601

###

conditions: in n-propanol, 298.15 K
measure: solubility (mole fraction)
// keep it numeric: no unit symbol after the value

Query: Report solubility (mole fraction), nothing else, for this compound: `OC[C@H]1O[C@@H](Oc2ccc(O)cc2)[C@H](O)[C@@H](O)[C@@H]1O`
Result: 0.00115

###

conditions: in n-butanol, 303.15 K
measure: solubility (mole fraction)

Query: In one line, give reported solubility (mole fraction) of the entry `OC[C@H]1O[C@@H](Oc2ccc(O)cc2)[C@H](O)[C@@H](O)[C@@H]1O` .
Result: 0.00075

###

conditions: in isopropanol, 298.15 K
measure: solubility (mole fraction)

Query: Return solubility (mole fraction) for the following compound: `OC[C@H]1O[C@@H](Oc2ccc(O)cc2)[C@H](O)[C@@H](O)[C@@H]1O`
Result: 0.00108

###

settings: in n-butanol, 318.15 K
measure: solubility (mole fraction)
Please reply with the number alone, leaving off any unit.

Query: Determine from records and report solubility (mole fraction) for `OC[C@H]1O[C@@H](Oc2ccc(O)cc2)[C@H](O)[C@@H](O)[C@@H]1O`
Result: 0.00131

###

conditions: in methanol, 298.15 K
measure: solubility (mole fraction)
Answer with a number only.

Query: Determine from records and report solubility (mole fraction) for `OC[C@H]1O[C@@H](Oc2ccc(O)cc2)[C@H](O)[C@@H](O)[C@@H]1O`
Result: 0.0132

###

conditions: in ethyl acetate, 293.15 K
measure: solubility (mole fraction)

Query: Please report solubility (mole fraction) for the following compound: `OC[C@H]1O[C@@H](Oc2ccc(O)cc2)[C@H](O)[C@@H](O)[C@@H]1O`
Result: 8.6e-05

###

settings: in methyl acetate, 318.15 K
measure: solubility (mole fraction)
Give the figure by itself; no unit, no explanation.

Query: Give solubility (mole fraction) for `OC[C@H]1O[C@@H](Oc2ccc(O)cc2)[C@H](O)[C@@H](O)[C@@H]1O`
Result: 0.000353

###

settings: in isobutanol, 308.15 K
measure: solubility (mole fraction)
Just the number, please.

Query: Tell me solubility (mole fraction) reported for `OC[C@H]1O[C@@H](Oc2ccc(O)cc2)[C@H](O)[C@@H](O)[C@@H]1O`
Result: 0.000572

###

details: in ethyl acetate, 318.15 K
measure: solubility (mole fraction)
Note: the reply should be a number with no unit written.

Query: Provide measured solubility (mole fraction) value, entry: `OC[C@H]1O[C@@H](Oc2ccc(O)cc2)[C@H](O)[C@@H](O)[C@@H]1O`
Result: 0.000124
